// provenance: the supplement of paper PMC6555819

System: RXRa homodimer (NR concentration 180 nM)
Test: PBM binding z-score (relative to random genomic background probes); higher = stronger binding; sequences stand for … in GC…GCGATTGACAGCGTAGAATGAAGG
Use 2 as the dividing line for PBM binding z-score, with the line itself on the MET side and lower values as NOT MET.

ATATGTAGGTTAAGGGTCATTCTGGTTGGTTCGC; MET

// query Record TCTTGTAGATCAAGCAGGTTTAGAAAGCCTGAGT ; criterion: PBM binding z-score no lower than 2. Met?
// result NOT MET

// query Please give the result for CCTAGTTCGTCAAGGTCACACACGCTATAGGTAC too.
// result MET

// query Please give the result for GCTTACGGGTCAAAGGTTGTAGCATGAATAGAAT too.
// result MET

// query Please give the result for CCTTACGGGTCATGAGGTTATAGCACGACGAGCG too.
// result MET

// query Please give the result for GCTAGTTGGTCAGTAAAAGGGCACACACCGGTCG too.
// result NOT MET

###

Test system: PPARg homodimer (NR concentration 180 nM)
Assay: PBM binding z-score (relative to random genomic background probes); higher = stronger binding; sequences stand for … in GC…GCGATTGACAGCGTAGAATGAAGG
attributeMeasured: PBM binding z-score
Give bare numbers.

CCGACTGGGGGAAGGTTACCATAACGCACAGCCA; 0.69
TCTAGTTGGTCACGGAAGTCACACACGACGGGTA; 1.08
CCTCGGAGGACAACAGGTGGTCAGAGCTGCCAGA; -0.317

// each sequence listed below needs its PBM binding z-score
1. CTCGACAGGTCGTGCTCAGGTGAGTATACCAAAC
2. TGATTGAGGTTATAAGATCAGGGAACGTTGCAAA
3. GCGACTGGGGCAAAGCAGGTTACCATCAGGTTGG
4. CAAACAAGGTCAAGAGGTCAAAGTCCGCTTCCCG
5. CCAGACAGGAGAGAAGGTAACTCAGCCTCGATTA

// result
1: 0.723; 2: 0.564; 3: 0.147; 4: 8.18; 5: 0.786

###

Answer each item with its documented PBM binding z-score.
Test system: LXRa homodimer (NR concentration 270 nM)
Assay: PBM binding z-score (relative to random genomic background probes); higher = stronger binding; sequences stand for … in GC…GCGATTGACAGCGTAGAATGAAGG

// each sequence listed below needs its PBM binding z-score
1. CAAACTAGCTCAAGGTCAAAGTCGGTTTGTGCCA
2. GCTAGCAGACCATTTGGGTCACTCAATGACGGGC
3. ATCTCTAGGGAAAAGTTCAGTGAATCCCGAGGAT

// result
5.93
-0.619
0.405

// each sequence listed below needs its PBM binding z-score
1. TCTCGGAGGACACGAAGGTCAGAGCATTCCAGAG
2. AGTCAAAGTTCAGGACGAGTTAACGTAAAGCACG
3. CCTCGGAGCACAACAGGAGGTCAGAGCTGCCAGA
4. CCTTACGGGTCACTCCAGGTTATAGTATCGGAGT
5. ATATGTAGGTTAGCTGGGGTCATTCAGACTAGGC

// result
1. 0.206
2. 1.02
3. 1.97
4. 2.33
5. 3.02

// each sequence listed below needs its PBM binding z-score
1. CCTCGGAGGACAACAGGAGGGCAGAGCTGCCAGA
2. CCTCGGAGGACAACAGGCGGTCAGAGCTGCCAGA

// result
-0.39
0.394
